All values here come from patent US20250197368A1.

target_system: human α2β3γ2 GABAARs (benzodiazepine site) (Homo sapiens (Human), UniProt P18507+P47869)
Sequence (P47869 29-451): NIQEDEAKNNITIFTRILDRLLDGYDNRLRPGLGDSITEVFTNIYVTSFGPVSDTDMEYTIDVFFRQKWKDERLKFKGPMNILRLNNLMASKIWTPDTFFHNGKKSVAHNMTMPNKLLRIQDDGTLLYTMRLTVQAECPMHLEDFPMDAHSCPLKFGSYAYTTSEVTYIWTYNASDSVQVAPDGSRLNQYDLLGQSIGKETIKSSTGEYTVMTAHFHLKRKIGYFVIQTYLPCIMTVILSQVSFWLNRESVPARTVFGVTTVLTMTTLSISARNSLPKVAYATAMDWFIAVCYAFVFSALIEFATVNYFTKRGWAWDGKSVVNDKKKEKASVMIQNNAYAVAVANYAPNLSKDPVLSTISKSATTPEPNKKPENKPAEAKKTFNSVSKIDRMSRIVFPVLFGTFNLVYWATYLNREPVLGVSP
Sequence (P28472 26-473 partner): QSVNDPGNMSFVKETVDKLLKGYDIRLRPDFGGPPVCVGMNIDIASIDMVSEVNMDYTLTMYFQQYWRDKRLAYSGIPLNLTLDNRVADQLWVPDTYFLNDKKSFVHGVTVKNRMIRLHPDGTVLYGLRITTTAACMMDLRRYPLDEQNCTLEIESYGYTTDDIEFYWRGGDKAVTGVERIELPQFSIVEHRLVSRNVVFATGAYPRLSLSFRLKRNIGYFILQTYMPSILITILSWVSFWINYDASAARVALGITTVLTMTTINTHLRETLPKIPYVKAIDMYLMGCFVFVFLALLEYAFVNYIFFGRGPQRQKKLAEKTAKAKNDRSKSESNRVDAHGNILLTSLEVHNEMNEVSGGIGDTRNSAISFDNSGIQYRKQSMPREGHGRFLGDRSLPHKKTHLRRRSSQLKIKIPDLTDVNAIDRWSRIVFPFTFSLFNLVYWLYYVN
Sequence (P18507 40-475): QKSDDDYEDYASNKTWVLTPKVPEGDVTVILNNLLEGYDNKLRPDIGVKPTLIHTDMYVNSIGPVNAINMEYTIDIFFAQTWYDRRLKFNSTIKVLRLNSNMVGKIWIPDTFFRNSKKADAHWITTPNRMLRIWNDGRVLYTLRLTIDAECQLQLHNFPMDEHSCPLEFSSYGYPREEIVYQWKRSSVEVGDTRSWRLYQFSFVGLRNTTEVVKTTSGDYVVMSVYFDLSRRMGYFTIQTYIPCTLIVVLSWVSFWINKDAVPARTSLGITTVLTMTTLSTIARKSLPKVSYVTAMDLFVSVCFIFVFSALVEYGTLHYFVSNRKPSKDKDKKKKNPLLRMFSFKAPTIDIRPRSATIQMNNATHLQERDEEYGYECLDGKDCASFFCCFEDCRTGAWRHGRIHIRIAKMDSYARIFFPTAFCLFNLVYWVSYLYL
run_description: In vitro radioligand binding assay ([3H]Ro15-1788 displacement), α2-GABAAR Ki
Doc: threshold 4 nM (exclusive). Items with Ki beneath it return 1; others return 0.

compound	assigned_label
CCCNC(=O)c1c(N)c2cccc(-c3cc(CN4CCC5(CC4)CN(C)C5)ccc3F)c2[nH]c1=O [Example 144]	1
Cc1nn(C)cc1-c1cccc2c(N)c(C(=O)NCC(C)C)c(=O)n(C)c12 [Example 82]	0
CCCNC(=O)c1c(N)c2cccc(-c3ncncc3OC)c2[nH]c1=O [Example 37]	0
CCCNC(=O)c1c(N)c2cccc(-c3c(C)noc3C)c2[nH]c1=O [Example 54]	0
